Details: in tert-butyl acetate, 291.2 K
recorded_endpoint: solubility (mole fraction)
Please give the numeric answer without any surrounding text.

Look up solubility (mole fraction): CC[C@H](C)C(=O)O[C@H]1C[C@@H](C)C=C2C=C[C@H](C)[C@H](CC[C@@H]3C[C@@H](O)CC(=O)O3)[C@H]21 0.00346

---

Conditions: in tert-butyl acetate, 297.2 K
recorded_endpoint: solubility (mole fraction)
Please give the numeric answer without any surrounding text.

Look up solubility (mole fraction): CC[C@H](C)C(=O)O[C@H]1C[C@@H](C)C=C2C=C[C@H](C)[C@H](CC[C@@H]3C[C@@H](O)CC(=O)O3)[C@H]21 0.0042

---

Conditions: in acetone, 285.1 K
recorded_endpoint: solubility (mole fraction)
Please give the numeric answer without any surrounding text.

Look up solubility (mole fraction): CC[C@H](C)C(=O)O[C@H]1C[C@@H](C)C=C2C=C[C@H](C)[C@H](CC[C@@H]3C[C@@H](O)CC(=O)O3)[C@H]21 0.00831

---

Conditions: in sec-butyl acetate, 309.4 K
recorded_endpoint: solubility (mole fraction)

Look up solubility (mole fraction): CC[C@H](C)C(=O)O[C@H]1C[C@@H](C)C=C2C=C[C@H](C)[C@H](CC[C@@H]3C[C@@H](O)CC(=O)O3)[C@H]21 0.0083

---

Settings: in isobutyl acetate, 312.2 K
recorded_endpoint: solubility (mole fraction)

Look up solubility (mole fraction): CC[C@H](C)C(=O)O[C@H]1C[C@@H](C)C=C2C=C[C@H](C)[C@H](CC[C@@H]3C[C@@H](O)CC(=O)O3)[C@H]21 0.00864

---

Conditions: in ethyl acetate, 288.3 K
recorded_endpoint: solubility (mole fraction)
Please give the numeric answer without any surrounding text.

Look up solubility (mole fraction): CC[C@H](C)C(=O)O[C@H]1C[C@@H](C)C=C2C=C[C@H](C)[C@H](CC[C@@H]3C[C@@H](O)CC(=O)O3)[C@H]21 0.0047

---

Details: in ethyl acetate, 285.1 K
recorded_endpoint: solubility (mole fraction)
Please give the numeric answer without any surrounding text.

Look up solubility (mole fraction): CC[C@H](C)C(=O)O[C@H]1C[C@@H](C)C=C2C=C[C@H](C)[C@H](CC[C@@H]3C[C@@H](O)CC(=O)O3)[C@H]21 0.00417

---

Conditions: in n-propyl acetate, 309.4 K
recorded_endpoint: solubility (mole fraction)
Please give the numeric answer without any surrounding text.

Look up solubility (mole fraction): CC[C@H](C)C(=O)O[C@H]1C[C@@H](C)C=C2C=C[C@H](C)[C@H](CC[C@@H]3C[C@@H](O)CC(=O)O3)[C@H]21 0.00901

---

Conditions: in tert-butyl acetate, 294.6 K
recorded_endpoint: solubility (mole fraction)
Please give the numeric answer without any surrounding text.

Look up solubility (mole fraction): CC[C@H](C)C(=O)O[C@H]1C[C@@H](C)C=C2C=C[C@H](C)[C@H](CC[C@@H]3C[C@@H](O)CC(=O)O3)[C@H]21 0.00386

---

Conditions: in 2-butanone, 306.3 K
recorded_endpoint: solubility (mole fraction)

Look up solubility (mole fraction): CC[C@H](C)C(=O)O[C@H]1C[C@@H](C)C=C2C=C[C@H](C)[C@H](CC[C@@H]3C[C@@H](O)CC(=O)O3)[C@H]21 0.0175

---

Conditions: in 2-butanone, 288.3 K
recorded_endpoint: solubility (mole fraction)
Please give the numeric answer without any surrounding text.

Look up solubility (mole fraction): CC[C@H](C)C(=O)O[C@H]1C[C@@H](C)C=C2C=C[C@H](C)[C@H](CC[C@@H]3C[C@@H](O)CC(=O)O3)[C@H]21 0.00878

---

Conditions: in n-propyl acetate, 285.1 K
recorded_endpoint: solubility (mole fraction)
Please give the numeric answer without any surrounding text.

Look up solubility (mole fraction): CC[C@H](C)C(=O)O[C@H]1C[C@@H](C)C=C2C=C[C@H](C)[C@H](CC[C@@H]3C[C@@H](O)CC(=O)O3)[C@H]21 0.00395

---

Conditions: in 2-butanone, 312.2 K
recorded_endpoint: solubility (mole fraction)

Look up solubility (mole fraction): CC[C@H](C)C(=O)O[C@H]1C[C@@H](C)C=C2C=C[C@H](C)[C@H](CC[C@@H]3C[C@@H](O)CC(=O)O3)[C@H]21 0.0219

---

Conditions: in 2-butanone, 294.6 K
recorded_endpoint: solubility (mole fraction)
Please give the numeric answer without any surrounding text.

Look up solubility (mole fraction): CC[C@H](C)C(=O)O[C@H]1C[C@@H](C)C=C2C=C[C@H](C)[C@H](CC[C@@H]3C[C@@H](O)CC(=O)O3)[C@H]21 0.0111

---

Conditions: in acetone, 288.3 K
recorded_endpoint: solubility (mole fraction)

Look up solubility (mole fraction): CC[C@H](C)C(=O)O[C@H]1C[C@@H](C)C=C2C=C[C@H](C)[C@H](CC[C@@H]3C[C@@H](O)CC(=O)O3)[C@H]21 0.00936

---

Conditions: in methyl acetate, 297.2 K
recorded_endpoint: solubility (mole fraction)
Please give the numeric answer without any surrounding text.

Look up solubility (mole fraction): CC[C@H](C)C(=O)O[C@H]1C[C@@H](C)C=C2C=C[C@H](C)[C@H](CC[C@@H]3C[C@@H](O)CC(=O)O3)[C@H]21 0.00447

---

Settings: in n-propyl acetate, 312.2 K
recorded_endpoint: solubility (mole fraction)
Please give the numeric answer without any surrounding text.

Look up solubility (mole fraction): CC[C@H](C)C(=O)O[C@H]1C[C@@H](C)C=C2C=C[C@H](C)[C@H](CC[C@@H]3C[C@@H](O)CC(=O)O3)[C@H]21 0.00997

---

Settings: in sec-butyl acetate, 303.1 K
recorded_endpoint: solubility (mole fraction)
Please give the numeric answer without any surrounding text.

Look up solubility (mole fraction): CC[C@H](C)C(=O)O[C@H]1C[C@@H](C)C=C2C=C[C@H](C)[C@H](CC[C@@H]3C[C@@H](O)CC(=O)O3)[C@H]21 0.00666

---

Conditions: in tert-butyl acetate, 285.1 K
recorded_endpoint: solubility (mole fraction)
Please give the numeric answer without any surrounding text.

Look up solubility (mole fraction): CC[C@H](C)C(=O)O[C@H]1C[C@@H](C)C=C2C=C[C@H](C)[C@H](CC[C@@H]3C[C@@H](O)CC(=O)O3)[C@H]21 0.00275

---

Settings: in sec-butyl acetate, 285.1 K
recorded_endpoint: solubility (mole fraction)

Look up solubility (mole fraction): CC[C@H](C)C(=O)O[C@H]1C[C@@H](C)C=C2C=C[C@H](C)[C@H](CC[C@@H]3C[C@@H](O)CC(=O)O3)[C@H]21 0.00365

---

Details: in ethyl acetate, 291.2 K
recorded_endpoint: solubility (mole fraction)

Look up solubility (mole fraction): CC[C@H](C)C(=O)O[C@H]1C[C@@H](C)C=C2C=C[C@H](C)[C@H](CC[C@@H]3C[C@@H](O)CC(=O)O3)[C@H]21 0.00517

---

Conditions: in isobutyl acetate, 300.3 K
recorded_endpoint: solubility (mole fraction)
Please give the numeric answer without any surrounding text.

Look up solubility (mole fraction): CC[C@H](C)C(=O)O[C@H]1C[C@@H](C)C=C2C=C[C@H](C)[C@H](CC[C@@H]3C[C@@H](O)CC(=O)O3)[C@H]21 0.0057

---

Conditions: in acetone, 309.4 K
recorded_endpoint: solubility (mole fraction)
Please give the numeric answer without any surrounding text.

Look up solubility (mole fraction): CC[C@H](C)C(=O)O[C@H]1C[C@@H](C)C=C2C=C[C@H](C)[C@H](CC[C@@H]3C[C@@H](O)CC(=O)O3)[C@H]21 0.0206

---

Conditions: in 2-butanone, 309.4 K
recorded_endpoint: solubility (mole fraction)

Look up solubility (mole fraction): CC[C@H](C)C(=O)O[C@H]1C[C@@H](C)C=C2C=C[C@H](C)[C@H](CC[C@@H]3C[C@@H](O)CC(=O)O3)[C@H]21 0.0197

---

Conditions: in n-propyl acetate, 306.3 K
recorded_endpoint: solubility (mole fraction)
Please give the numeric answer without any surrounding text.

Look up solubility (mole fraction): CC[C@H](C)C(=O)O[C@H]1C[C@@H](C)C=C2C=C[C@H](C)[C@H](CC[C@@H]3C[C@@H](O)CC(=O)O3)[C@H]21 0.00803

---

Conditions: in n-propyl acetate, 303.1 K
recorded_endpoint: solubility (mole fraction)
Please give the numeric answer without any surrounding text.

Look up solubility (mole fraction): CC[C@H](C)C(=O)O[C@H]1C[C@@H](C)C=C2C=C[C@H](C)[C@H](CC[C@@H]3C[C@@H](O)CC(=O)O3)[C@H]21 0.00724

---

Conditions: in n-butyl acetate, 303.1 K
recorded_endpoint: solubility (mole fraction)
Please give the numeric answer without any surrounding text.

Look up solubility (mole fraction): CC[C@H](C)C(=O)O[C@H]1C[C@@H](C)C=C2C=C[C@H](C)[C@H](CC[C@@H]3C[C@@H](O)CC(=O)O3)[C@H]21 0.00748
